# MEASUREMENT_TARGET: Human recombinant trypsin (Homo sapiens, UniProt P07477)
# Construct: purchased Wako Pure Chemical Industries, Ltd. 206-17171
# ASSAY_METHOD_TEXT: Human trypsin inhibition test
# Type: biochemical
# TEST_CONDITIONS: compound concentration 100 nM; 20 minutes after reaction start; read-out: Inhibition rate (trypsin)
The reader will find reported inhibition at 0.1 µM values listed item by item below.

Cl.N=C(N)Nc1ccc2c(c1)CCCOc1c(cccc1C(=O)N(Cc1cc(OCCOCCOc3cc(CN(C(=O)c4cccc5c4OCCCc4cc(NC(=N)N)ccc4C(=O)O5)[C@@H](CC(=O)O)C(=O)O)cc(C(=O)O)c3)cc(C(=O)O)c1)[C@@H](CC(=O)O)C(=O)O)OC2=O [29-(c), hydrochloride] | ≥ 50%

As a next step, examine the compound that follows.
Dear colleague, please send me the reported inhibition at 0.1 µM for `N=C(N)Nc1ccc(C(=O)Oc2ccc(COC(=O)N(Cc3cccc(C(=O)O)c3)[C@@H](CC(=O)O)C(=O)NCCOCCOCCOCCOCCNC(=O)[C@H](CC(=O)O)N(Cc3cccc(C(=O)O)c3)C(=O)OCc3ccc(OC(=O)c4ccc(NC(=N)N)cc4)cc3)cc2)cc1` when you can. ≥ 50%
